shrunken log2 fold change for assorted sequences
tested on: Escherichia coli TOP10; test: shrunken log2 fold change of peptide-encoding DNA abundance (4.5 h post-induction vs induction); higher = less antimicrobial activity (less host growth inhibition); details: time post-induction: 4.5 h; library: site-saturation at positions 5, 18, 19, 20;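 also: peptides expressed intracellularly from a pBAD plasmid library in pooled LB shake-flask culture, induced with 0.3% L-arabinose, DNA abundance read by NGS, three biological replicates, DESeq2 with apeglm shrinkage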
I'd appreciate a reply containing only the number, no unit.

Sample answers from the record:
RRIRDRPPRLPRPRPRPMWQPRP : 0.00699
RRIRQRPPRLPRPRPRPIEGPRP : 0.0763

Prompt: Reported shrunken log2 fold change for Escherichia coli TOP10, given RRIRARPPRLPRPRPRPSPAPRP ?
Completion: 0.616

Prompt: Proceed to RRIRPRPPRLPRPRPRPMQEPRP
Completion: -0.0107

Prompt: Proceed to RRIRERPPRLPRPRPRPAMVPRP
Completion: 0.037

Prompt: Proceed to RRIRCRPPRLPRPRPRPKMGPRP
Completion: 0.0549

Prompt: Proceed to RRIRARPPRLPRPRPRPNHKPRP
Completion: -0.351

Prompt: Proceed to RRIRMRPPRLPRPRPRPTLFPRP
Completion: 0.428

Prompt: Proceed to RRIRPRPPRLPRPRPRPVHVPRP
Completion: 0.18

Prompt: Proceed to RRIRPRPPRLPRPRPRPNEDPRP
Completion: -0.509

Prompt: Proceed to RRIRKRPPRLPRPRPRPYEPPRP
Completion: -0.243

Prompt: Proceed to RRIRNRPPRLPRPRPRPFIMPRP
Completion: -0.889

Prompt: Proceed to RRIRFRPPRLPRPRPRPIERPRP
Completion: 0.116

Prompt: Proceed to RRIRDRPPRLPRPRPRPPENPRP
Completion: 0.856

Prompt: Proceed to RRIRNRPPRLPRPRPRPPTSPRP
Completion: 0.298

Prompt: Proceed to RRIRTRPPRLPRPRPRPKLHPRP
Completion: -0.101
